Molecular target: Human CD4 on CD4+CD25+ regulatory T cells of healthy donors (human, UniProt P01730 26-458)
Assay: cell-based or functional assay
PARAMETER: Avg. % inhibition (%)
A number alone suffices; assume %.

Which Avg. % inhibition value is on record for LC master HC A63G (antibody, V domains shown) VH: EEQLVESGGGLVKPGGSLRLSCAASGFSFSDCRMYWLRQAPGKGLEWIGVISVKSENYGANYGESVRGRFTISRDDSKNTVYLQMNSLKTEDTAVYYCSASYYRYDVGAWFAYWGQGTLVTVSS VL: DIVMTQSPDSLAVSLGERATINCRASKSVSTSGYSYIYWYQQKPGQPPKLLIYLASILESGVPDRFSGSGSGTDFTLTISSLQAEDVAVYYCQHSRELPWTFGQGTKVEIKR ?
26
